Biological target: GlyT-1c (Homo sapiens)
Construct: expressed in transfected cells; host or cells: QT-6 quail fibroblast cells (ATCC CRL-1708), transient transfection
Sequence (P48067 1-706): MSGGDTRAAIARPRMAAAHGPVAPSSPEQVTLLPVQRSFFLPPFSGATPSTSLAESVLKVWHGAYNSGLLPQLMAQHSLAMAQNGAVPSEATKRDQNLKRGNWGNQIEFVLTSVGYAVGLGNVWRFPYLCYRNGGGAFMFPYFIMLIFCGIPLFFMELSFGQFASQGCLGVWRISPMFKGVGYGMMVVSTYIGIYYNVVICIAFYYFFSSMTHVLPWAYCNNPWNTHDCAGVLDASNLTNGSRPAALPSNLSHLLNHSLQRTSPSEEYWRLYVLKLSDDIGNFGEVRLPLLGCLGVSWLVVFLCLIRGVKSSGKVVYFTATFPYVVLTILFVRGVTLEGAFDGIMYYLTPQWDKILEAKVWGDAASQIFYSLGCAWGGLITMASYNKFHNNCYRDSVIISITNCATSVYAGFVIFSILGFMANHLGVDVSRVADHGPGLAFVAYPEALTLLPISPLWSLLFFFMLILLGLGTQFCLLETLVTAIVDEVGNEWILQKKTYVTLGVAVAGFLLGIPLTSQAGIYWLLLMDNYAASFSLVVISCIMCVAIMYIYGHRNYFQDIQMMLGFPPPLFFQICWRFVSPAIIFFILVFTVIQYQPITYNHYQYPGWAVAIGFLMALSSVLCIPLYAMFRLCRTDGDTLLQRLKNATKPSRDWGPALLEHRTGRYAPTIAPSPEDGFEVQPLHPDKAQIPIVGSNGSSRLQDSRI
Assay: Inhibition of [3H]glycine uptake in QT-6 cells transiently transfected with GlyT-1c
Format: cell-based
RECORDED ENDPOINT: pIC50
Convention used: pIC50 is expressed as -log10 of the molar concentration.

COMPOUND: CC(NCCC(c1ccccc1)c1ccccc1)c1ccccc1 (stereo not drawn) [ZE]
STUDY SYSTEM: GlyT-1c (Homo sapiens)
pIC50: 4.89
//
COMPOUND: CC(C)(C)c1ccc(C(O)CCCN2CCC(C(O)(c3ccccc3)c3ccccc3)CC2)cc1 (stereo not drawn) [ZB]
STUDY SYSTEM: GlyT-1c (Homo sapiens)
pIC50: 5.37

Shift focus to the following entry.
I looked up CC(Cc1ccccc1)NCCC(c1ccccc1)c1ccccc1 (stereo not drawn) [ZC] and its pIC50 for GlyT-1c (Homo sapiens) was 5.19

====

target: glycine site on the NMDA receptor; conditions: read-out: concentration of agonist resulting in about a 50% effect on [3H]MK-801 binding; rat cortex/hippocampus membranes; glutamate 10 μM, 2.5 nM [3H]MK-801, 1 hour room temperature; FIG. 2B
pEC50: −log10 of the molar value.
RECORDED ENDPOINT: pEC50

Measured on glycine site on the NMDA receptor, `NCC(=O)O` has a documented pEC50 of ~6.00

====

Molecular target: GlyT-2 (Rattus norvegicus)
Construct: expressed in transfected cells; host or cells: QT-6 quail fibroblast cells (ATCC CRL-1708), transient transfection
Sequence (P58295 1-799): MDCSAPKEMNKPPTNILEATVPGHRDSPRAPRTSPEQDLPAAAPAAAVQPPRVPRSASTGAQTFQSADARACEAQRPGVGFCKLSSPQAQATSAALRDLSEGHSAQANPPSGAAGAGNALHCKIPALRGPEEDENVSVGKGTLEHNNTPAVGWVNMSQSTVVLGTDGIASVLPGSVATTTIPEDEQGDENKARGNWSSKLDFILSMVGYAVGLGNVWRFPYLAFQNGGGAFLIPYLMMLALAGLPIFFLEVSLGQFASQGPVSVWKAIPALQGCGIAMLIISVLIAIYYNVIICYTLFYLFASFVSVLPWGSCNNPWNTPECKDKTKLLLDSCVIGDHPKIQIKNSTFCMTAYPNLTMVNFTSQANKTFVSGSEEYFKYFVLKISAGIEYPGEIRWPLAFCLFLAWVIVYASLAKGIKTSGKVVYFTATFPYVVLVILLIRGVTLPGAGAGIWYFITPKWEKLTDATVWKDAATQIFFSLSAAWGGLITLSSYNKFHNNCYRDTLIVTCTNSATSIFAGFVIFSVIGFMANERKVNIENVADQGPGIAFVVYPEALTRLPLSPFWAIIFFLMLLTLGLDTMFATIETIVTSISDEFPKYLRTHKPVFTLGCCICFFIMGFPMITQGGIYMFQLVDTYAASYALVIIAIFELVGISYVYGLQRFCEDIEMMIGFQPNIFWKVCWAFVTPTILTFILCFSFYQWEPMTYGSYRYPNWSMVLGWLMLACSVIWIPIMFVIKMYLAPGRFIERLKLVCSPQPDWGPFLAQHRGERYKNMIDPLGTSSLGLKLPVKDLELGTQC
Test: Inhibition of [3H]glycine uptake in QT-6 cells transiently transfected with GlyT-2
Type: cell-based
RECORDED ENDPOINT: IC50
Answer with the value and then the unit.

Record excerpt, results attached:
COMPOUND: CC(NCCC(c1ccccc1)c1ccccc1)c1ccccc1 (stereo not drawn) [ZE]
IC50: 20.9 µM
//
COMPOUND: CC(C)(C)c1ccc(C(O)CCCN2CCC(C(O)(c3ccccc3)c3ccccc3)CC2)cc1 (stereo not drawn) [ZB]
IC50: 17 µM

Moving on to another compound below.
Item: CC(Cc1ccccc1)NCCC(c1ccccc1)c1ccccc1 (stereo not drawn) [ZC] | System: GlyT-2 (Rattus norvegicus) | IC50: 14.1 µM
